molecular target: Voltage-gated inwardly rectifying potassium channel KCNH2 (Homo sapiens); assay: KCNH2 potassium channel function modulators, cell-based (AID 376); conditions: hERG-expressing cells, channel activity single-concentration screen; concentration not given here;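 also: 0% = buffer alone and 100% = reference blocker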
Hit rate of the full screen: of about 2,000 compounds, about 250 (12%) were called active. Many of the other results were omitted from the sample, so actives are more common in it than they were.
readout_label: hERG blockade

>>> print(df.to_string())
                                    compound                                    target         test_value
 0  [O-][n+]1c(CN2CCCCC2)nc2cccc3c2c1-c1ccccc1-3  Voltage-gated inwardly rectifying potassium channel KCNH2 (Homo sapiens)     41.6% (active)
 1  CC(C)C1OC(=O)C=CC=CC=CC=CC=CCC(O)C(C)C(O)CC(O)CC(O)CC(O)CC(O)CC(O)CC(O)C=CC1C (stereo not drawn)  Voltage-gated inwardly rectifying potassium channel KCNH2 (Homo sapiens)   5.61% (inactive)
 2  COc1cc(C)cc2c(-c3c(O)cc(O)c4c3CC(C)NC4C)cc(-c3cc(-c4c(O)cc(O)c5c4CC(C)NC5C)c4cc(C)cc(OC)c4c3O)c(O)c12 (stereo not drawn)  Voltage-gated inwardly rectifying potassium channel KCNH2 (Homo sapiens)     22.2% (active)
 3       Cc1ccc2nc(NN=Cc3cccc(C)n3)cc(C)c2c1  Voltage-gated inwardly rectifying potassium channel KCNH2 (Homo sapiens)     26.3% (active)
 4             O=c1ccnc(SCc2ccc(Cl)cc2)[nH]1  Voltage-gated inwardly rectifying potassium channel KCNH2 (Homo sapiens)  -3.26% (inactive)
 5            N#CC(=NCCO)C1=C(O)c2ccccc2C1=O  Voltage-gated inwardly rectifying potassium channel KCNH2 (Homo sapiens)  -3.02% (inactive)
 6                       CCN(CC(=O)O)CC(=O)O  Voltage-gated inwardly rectifying potassium channel KCNH2 (Homo sapiens)   4.67% (inactive)
 7  CC(C)C1=CC23CCC4C(C)(C(=O)O)CCCC4(C)C2CC1C(C(=O)O)C3C(=O)O (stereo not drawn)  Voltage-gated inwardly rectifying potassium channel KCNH2 (Homo sapiens)   6.18% (inactive)
 8  CC(CCC(=O)O)(c1cc(Br)c(O)c(Br)c1)c1cc(Br)c(O)c(Br)c1  Voltage-gated inwardly rectifying potassium channel KCNH2 (Homo sapiens)   5.39% (inactive)
 9                   O=C(O)CC(CC(=O)O)C(=O)O  Voltage-gated inwardly rectifying potassium channel KCNH2 (Homo sapiens)   15.6% (inactive)
10  CC12CCC3c4ccc(OCC(=O)O)cc4CCC3C1CCC2=O (stereo not drawn)  Voltage-gated inwardly rectifying potassium channel KCNH2 (Homo sapiens)  -7.52% (inactive)
11    CC(CNC(N)=O)NC(N)=O (stereo not drawn)  Voltage-gated inwardly rectifying potassium channel KCNH2 (Homo sapiens)    2.5% (inactive)
12                      CN(C)Cc1nsc(N(C)C)n1  Voltage-gated inwardly rectifying potassium channel KCNH2 (Homo sapiens)   2.33% (inactive)
13          CN1CCN(CC(=O)Nc2cccc3ccccc23)CC1  Voltage-gated inwardly rectifying potassium channel KCNH2 (Homo sapiens)   8.36% (inactive)
14  CN1CCN(Cc2nc3cccc4c3c([n+]2[O-])-c2ccccc2-4)CC1  Voltage-gated inwardly rectifying potassium channel KCNH2 (Homo sapiens)     39.2% (active)
15                  O=C(O)CNc1ccc(C(=O)O)cc1  Voltage-gated inwardly rectifying potassium channel KCNH2 (Homo sapiens)   1.76% (inactive)
16  CC1(C)N=C(N)N=C(N)N1c1cccc(OCc2cccc(N)c2)c1  Voltage-gated inwardly rectifying potassium channel KCNH2 (Homo sapiens)   4.96% (inactive)
17  NC(CC1=CS(=O)(=O)c2ccc(Cl)cc21)C(=O)O (stereo not drawn)  Voltage-gated inwardly rectifying potassium channel KCNH2 (Homo sapiens)  0.214% (inactive)
18  CN(C)CCC(C(=O)C(C)(C)C)c1ccccn1 (stereo not drawn)  Voltage-gated inwardly rectifying potassium channel KCNH2 (Homo sapiens)  -9.42% (inactive)
19       CC(C)c1ccc(C(C(=O)O)=C(O)C(=O)O)cc1  Voltage-gated inwardly rectifying potassium channel KCNH2 (Homo sapiens)   6.01% (inactive)
20        O=C(CON1C(=O)c2ccccc2C1=O)c1ccccc1  Voltage-gated inwardly rectifying potassium channel KCNH2 (Homo sapiens)   13.2% (inactive)
21    c1ccc(CSc2nnc3c4ccccc4c4ccccc4c3n2)cc1  Voltage-gated inwardly rectifying potassium channel KCNH2 (Homo sapiens)   -3.1% (inactive)
22  O=C1C2=C(Nc3cc([N+](=O)[O-])ccc3N2)OC1c1c[nH]c2ccc(COc3ccccc3)cc12 (stereo not drawn)  Voltage-gated inwardly rectifying potassium channel KCNH2 (Homo sapiens)    4.4% (inactive)
